B1: CPEB3 Ribozyme (parent)
chain: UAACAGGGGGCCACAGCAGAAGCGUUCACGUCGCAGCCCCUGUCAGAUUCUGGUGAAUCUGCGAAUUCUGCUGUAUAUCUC

Variants of: B1
Test: self-cleavage, relative activity (ratio to wild type); higher = more cleavage; in vitro, sequencing
// label = True if self-cleavage is not less than 0.4, otherwise False

# example entries with known answers
query sequence: UAACAGGUGGCCACAGCAGAUGCGUUCACGUCGCAGCCCCUGUCAGAUUCUGGUGAAUCUGCGAAUUCUGCUGUAUAUCUC [G8U A21U]
class name: False
//
query sequence: UAACAGGGGGCCACAGCGGAAGCGUUCACGUCGCAGCCCCUGUCAGAUUCUGGUGAAUCUGCGAAUUCUGCUGUCUAUCUC [A18G A75C]
class name: True
//
query sequence: UAACAGGGGGCCACAGCGGAAGCGUUCACGUCGCAGCCCCUGUCAGAUUCUGGUGAAUCUGCGAAUUCUGCUGUAUAGCUC [A18G U78G]
class name: True

Q: self-cleavage >= 0.4 for UAACAGGGGGCCACAGCGGAAGCGUUCACGUCGCAGCCCCUGUCAGAUUCUGGUGAAUCUGCGAAUUCUGCAGUAUAUCUC [A18G U72A] ?
A: False

Q: Quick check, self-cleavage >= 0.4? UAACAGGGGGCCACAGCAGAAGCGUUCACGUCGCAGCCCCUGUCAGAUUCUGGUGAAUAUGCGAAUUCUGCUGUAUAUCGC [C59A U80G]
A: False

Q: Check if self-cleavage >= 0.4 (inclusive). Item: UAACAGGGGGCCACAGCAGAAGCGUACACGUCGCAGCCCCUGUCAGAUUAUGGUGAAUCUGCGAAUUCUGCUGUAUAUCUC [U26A C50A]
A: True

Q: # bool: self-cleavage of UAACAGGGGGCCCCAGCAGAAGCGUUCACGUCGCAGCCCCUGUCAGAUUCUGGUGAAUCUGCGAAUUCUGCUGUAUGUCUC [A13C A77G] >= 0.4
A: True

Q: Quick check, self-cleavage >= 0.4? UAACCGGGGGCCACAGCAGAAGCGUUCACGUCGCAGCCCCUGUCAGAUUCUGGUGAAUCUGCGAAUUCUGCUGUAUAUCAC [A5C U80A]
A: True

Q: Given the entry UAACAGGGGGCCACAGCAGAAGCGUUCACGUCGCAGCCACUGUCAGAUUCUGGUGAAUCUGCGAAUUCUGCUGAAUAUCUC [C39A U74A] , answer whether its self-cleavage meets or surpasses 0.4.
A: True

Q: Confirm if self-cleavage reported for the variant UAACAGGGGGCCACAGCUGAAGCGUUCACGUCGAAGCCCCUGUCAGAUUCUGGUGAAUCUGCGAAUUCUGCUGUAUAUCUC [A18U C34A] is 0.4 or above.
A: False
